# Test system: UO-31
# Assay remarks: NCI tumour cell line growth inhibition, 48 h
Calls of active or inactive are those of the source. Rule as the data show it: active = GI50 up to about 1.1 µM and inactive = higher.
Choose one outcome from this list and give only that: yes (1) for active, no (0) for inactive

Write down the call the test reported for this compound. Item: `Cc1cc(NS(=O)(=O)c2ccc(Nc3c4ccccc4nc4c(C(=O)Nc5ccc(S(=O)(=O)N=C(N)N)cc5)cccc34)cc2)no1`
no (0)

What outcome does the record of this test show for O=C1C[S+]([O-])c2ccccc2N1 (stereo not given) ?
no (0)

Please share the test call associated with `O=c1cc(-c2ccccc2)nc(-n2[nH]c3c(c2=O)CCCC3)[nH]1` .
no (0)

Could you check what this test reported for CCOC(=O)C(C)c1cc(C2(C)OCCO2)c(C)o1 (stereo not given) ?
no (0)

Record request — test call for O=c1[nH]c(=O)n(C2CC(O)C(CO)O2)c2nc3ccc4cc5ccccc5cc4c3nc12 (stereo not given)
no (0)

What classification did `CN1CCN(CCCNN)CC1` end up with in this test?
no (0)

# fetch the recorded call for `C=CCOn1c(C=C)nc2c(C)cccc21` here
no (0)

Hi team, can someone confirm the assay call for `CCCCCCNCCCNc1c2ccccc2nc2cccc([N+](=O)[O-])c12` ?
yes (1)

// outcome(item) with item = COC(=O)C12C3C=CC(O3)C1C1C=CC2O1 (stereo not given)
no (0)

Assay outcome for CN1C(=O)CC2CCCN2C1=O (stereo not given) : what was it?
no (0)

Kindly provide the recorded test outcome for the following compound: `CCOC(=O)c1cc([N+](=O)[O-])cc([N+](=O)[O-])c1Sc1[nH]cnc2ncnc1-2`
no (0)

Query: recorded result category for `CCOC(=O)NC(=O)c1cn(CCCCCCCCCCC(=O)NCCCN2CCN(CCCNC(=O)CCCCCCCCCCn3cc(C(=O)NC(=O)OCC)c(=O)[nH]c3=O)CC2)c(=O)[nH]c1=O` in this test
no (0)

Field: outcome | Entry: `Cc1ccc(S(=O)(=O)O/N=C2\CCC\C2=C/c2ccccc2)cc1`
no (0)

Would you mind telling me which call this test gave `Nc1c(/C=C/c2cc3cc(C4=NCCN4)ccc3o2)[nH]c2cc(C3=NCCN3)ccc12` ?
no (0)

State the result this test recorded for `CCCCN(C)/N=N/c1[nH]cnc1C(N)=O` .
no (0)
